Molecular target: Ba/F3 De119/T790M/C797S EGFR triple mutant cell line (Homo sapiens, UniProt P00533, T790M/C797S, cells depend on it, form not given)
Sequence (P00533 with tags, fused parts or gaps DEL746-750/T790M/C797S, form open): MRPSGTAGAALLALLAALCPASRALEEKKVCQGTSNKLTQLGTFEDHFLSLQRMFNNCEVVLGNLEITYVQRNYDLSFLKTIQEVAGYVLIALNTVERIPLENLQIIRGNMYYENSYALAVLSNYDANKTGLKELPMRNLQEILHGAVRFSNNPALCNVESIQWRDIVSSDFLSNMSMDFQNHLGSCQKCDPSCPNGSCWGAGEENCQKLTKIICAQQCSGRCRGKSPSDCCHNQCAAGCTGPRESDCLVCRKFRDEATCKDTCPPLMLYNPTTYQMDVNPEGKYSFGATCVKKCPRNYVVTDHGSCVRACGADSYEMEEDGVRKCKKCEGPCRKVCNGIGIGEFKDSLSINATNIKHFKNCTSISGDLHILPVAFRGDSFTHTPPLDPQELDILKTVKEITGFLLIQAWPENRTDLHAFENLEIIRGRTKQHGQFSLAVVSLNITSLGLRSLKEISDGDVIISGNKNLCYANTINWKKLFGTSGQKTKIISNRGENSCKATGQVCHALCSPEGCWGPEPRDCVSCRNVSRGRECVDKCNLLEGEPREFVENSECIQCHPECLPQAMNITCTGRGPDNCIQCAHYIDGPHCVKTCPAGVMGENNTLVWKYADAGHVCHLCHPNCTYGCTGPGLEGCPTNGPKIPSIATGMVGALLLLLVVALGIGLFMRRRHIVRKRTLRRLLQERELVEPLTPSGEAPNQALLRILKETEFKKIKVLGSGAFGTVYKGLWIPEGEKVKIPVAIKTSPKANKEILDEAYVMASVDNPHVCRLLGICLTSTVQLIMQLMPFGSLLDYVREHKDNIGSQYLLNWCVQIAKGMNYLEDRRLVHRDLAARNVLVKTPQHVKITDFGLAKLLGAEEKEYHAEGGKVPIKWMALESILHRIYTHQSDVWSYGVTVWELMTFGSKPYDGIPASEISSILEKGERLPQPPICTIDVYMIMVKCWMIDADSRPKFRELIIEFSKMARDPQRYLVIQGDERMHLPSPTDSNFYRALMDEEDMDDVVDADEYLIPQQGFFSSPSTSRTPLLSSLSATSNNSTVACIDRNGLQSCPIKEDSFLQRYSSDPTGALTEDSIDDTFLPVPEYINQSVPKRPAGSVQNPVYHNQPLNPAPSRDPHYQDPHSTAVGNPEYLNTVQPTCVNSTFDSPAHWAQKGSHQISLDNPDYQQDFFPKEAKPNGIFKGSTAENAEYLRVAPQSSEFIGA
Assay: Cell proliferation inhibition experiment (CellTiter-Glo), Ba/F3 De119/T790M/C797S
Assay type: cell-based
Details: Ba/F3 Del19/T790M/C797S EGFR triple mutant cells, 72 hours, Cell Titer-Glo; read-out: Ba/F3 (Del19/T790M/C797S) IC50
recordedMetric: log10(GI50) (log10 of the value in nM)
Base-10 log of GI50, unit nM.

| molecule | log10(GI50) |
| --- | --- |
| COc1cc(N2CCOCC2)c(-c2ccn(C)n2)cc1Nc1ncc(Br)c(Nc2ccc3nccnc3c2P(C)(C)=O)n1 | 1.47 |
| COc1cc(N2CCC(C)(OC)CC2)c(-c2cnn(C)c2)cc1Nc1ncc(Br)c(Nc2ccccc2P(C)(C)=O)n1 | 0.91 |
| COc1cc(N2CCC(N3CCN(CC(F)F)CC3)CC2)c(-c2cnn(C)c2)cc1Nc1ncc(Br)c(Nc2ccc3nccnc3c2P(C)(C)=O)n1 | 0.14 |

Noted for COc1cc(N2CC(C)OC(C)C2)c(-c2cnn(C)c2)cc1Nc1ncc(Br)c(Nc2ccc3nccnc3c2P(C)(C)=O)n1 (racemic) [compound 135] : its log10(GI50) reads 0.57

Noted for COc1cc(N2CCC(N3CCN(C)C(C)C3)CC2)c(-c2cnn(C)c2)cc1Nc1ncc(Br)c(Nc2ccc3nccnc3c2P(C)(C)=O)n1 (stereo not shown) : its log10(GI50) reads 0.65

Noted for "COc1cc(N2CCOCC2)c(-c2cnn(C(F)F)c2)cc1Nc1ncc(Br)c(Nc2ccc3nccnc3c2P(C)(C)=O)n1" : its log10(GI50) reads 0.83

Noted for COc1cc(N2CC(C)OC(C)C2)c(-c2cnn(C)c2)cc1Nc1ncc(Br)c(Nc2cc3c(cc2P(C)(C)=O)CC3)n1 (racemic) [compound 137] : its log10(GI50) reads 1.43

Noted for "COc1cc(N2CCOCC2)c(-c2cccs2)cc1Nc1ncc(Br)c(Nc2ccc3nccnc3c2P(C)(C)=O)n1" : its log10(GI50) reads 1.53

----------
Molecular target: Ba/F3 L858R/T790M/C797S EGFR triple mutant cell line (Homo sapiens, UniProt P00533, T790M/C797S/L858R, cells depend on it)
Sequence (P00533 whole entry T790M/C797S/L858R): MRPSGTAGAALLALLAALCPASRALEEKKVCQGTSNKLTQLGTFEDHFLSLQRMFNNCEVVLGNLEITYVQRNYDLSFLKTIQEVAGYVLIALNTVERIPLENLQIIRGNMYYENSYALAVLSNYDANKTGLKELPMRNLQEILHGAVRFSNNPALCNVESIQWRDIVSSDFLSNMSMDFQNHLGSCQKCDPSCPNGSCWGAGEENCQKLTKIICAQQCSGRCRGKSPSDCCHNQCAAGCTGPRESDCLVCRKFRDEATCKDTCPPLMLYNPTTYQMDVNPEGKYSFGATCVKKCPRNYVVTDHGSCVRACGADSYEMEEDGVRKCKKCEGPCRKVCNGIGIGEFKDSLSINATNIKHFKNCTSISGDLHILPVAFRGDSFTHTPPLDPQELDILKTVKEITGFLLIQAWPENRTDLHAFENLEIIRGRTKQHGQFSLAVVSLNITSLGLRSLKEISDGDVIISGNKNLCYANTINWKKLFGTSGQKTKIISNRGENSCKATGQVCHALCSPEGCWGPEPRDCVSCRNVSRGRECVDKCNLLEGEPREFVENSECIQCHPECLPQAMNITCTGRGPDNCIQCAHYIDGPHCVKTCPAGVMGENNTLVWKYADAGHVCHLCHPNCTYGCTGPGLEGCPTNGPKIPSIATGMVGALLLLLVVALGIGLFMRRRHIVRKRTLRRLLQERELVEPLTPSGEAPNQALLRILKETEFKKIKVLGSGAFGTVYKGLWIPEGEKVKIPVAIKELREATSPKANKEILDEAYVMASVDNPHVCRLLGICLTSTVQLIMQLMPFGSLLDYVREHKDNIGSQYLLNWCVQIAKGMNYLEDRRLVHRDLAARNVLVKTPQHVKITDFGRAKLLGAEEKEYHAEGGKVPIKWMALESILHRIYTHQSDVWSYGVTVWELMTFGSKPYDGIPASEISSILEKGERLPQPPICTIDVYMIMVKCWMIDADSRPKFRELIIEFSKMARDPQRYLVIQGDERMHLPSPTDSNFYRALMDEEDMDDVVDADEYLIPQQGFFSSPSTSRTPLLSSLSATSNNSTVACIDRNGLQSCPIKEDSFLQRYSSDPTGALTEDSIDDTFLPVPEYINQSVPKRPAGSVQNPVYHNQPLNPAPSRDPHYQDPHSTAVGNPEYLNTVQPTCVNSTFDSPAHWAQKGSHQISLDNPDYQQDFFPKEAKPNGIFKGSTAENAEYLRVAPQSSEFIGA
Assay: Cell proliferation inhibition experiment (CellTiter-Glo), Ba/F3 L858R/T790M/C797S
Format: cell-based
Conditions: 72 hours, Cell Titer-Glo, read-out: Ba/F3 (L858R/T790M/C797S) IC50
Strictly below 20 nM in GI50: true. Otherwise: false.

Known results for compounds:
| compound | groupLabel |
| --- | --- |
| COc1cc(N2CCOCC2)c(-c2cnn(C)c2)cc1Nc1ncc(C2CC2)c(Nc2ccc3nccnc3c2P(C)(C)=O)n1 [Compound 41] | false |
| COc1cc(N(C)CCN(C)C)c(-c2cnn(C)c2)cc1Nc1ncc(Br)c(Nc2ccc3nccnc3c2P(C)(C)=O)n1 [compound 21] | true |
| COc1cc(N2CCOCC2)c(-c2cnn(C)c2)cc1Nc1ncc(Br)c(Nc2cc(C)c3nccnc3c2P(C)(C)=O)n1 [Compound 33] | false |
| COc1cc(N2CCC(N3CCN(C)CC3)CC2)c(-c2cnn(C)c2)cc1Nc1ncc(Br)c(Nc2ccccc2N(C)S(=O)(=O)C2CC2)n1 [compound 190] | true |
| COc1cc(N2CCC3(CC2)COC3)c(-c2cnn(C)c2)cc1Nc1ncc(Br)c(Nc2ccc3nccnc3c2P(C)(C)=O)n1 [compound 15] | true |

Incoming: Does the reported GI50 of the following compound sit strictly below 20 nM? COc1cc(N2CCOC(COC(C)C)C2)c(-c2cnn(C)c2)cc1Nc1ncc(Br)c(Nc2ccc3nccnc3c2P(C)(C)=O)n1 (stereo not shown) [compound 182]
Outgoing: true

Incoming: Does the reported GI50 of the following compound sit strictly below 20 nM? COc1cc(N2CCC(OC(C)C)CC2)c(-c2cnn(C)c2)cc1Nc1ncc(Br)c(Nc2ccc3nccnc3c2P(C)(C)=O)n1 [compound 151]
Outgoing: true

----------
Biological target: L858R/T790M/C797S triple mutant EGFR (Homo sapiens, UniProt P00533, C797S/L858R/T790M)
Construct: purchased Signalchem
Assay: Enzymology experiment in vitro (HTRF/FRET kinase activity), L858R/T790M/C797S triple mutant EGFR
Format: biochemical
Conditions: HTRF KinEASE-TK, read-out: EGFR (L858R/T790M/C797S) IC50
recordedMetric: IC50 (nM)
Form entry: value (nM) — number only.

Known results for compounds:
| compound | outputUnit | resultValue |
| --- | --- | --- |
| COc1cc(N2CCC3CCN(CCF)C3C2)c(-c2cnn(C)c2)cc1Nc1ncc(Br)c(Nc2ccc3nccnc3c2P(C)(C)=O)n1 (stereo not drawn) [compound 205] | nM | 0.35 |
| COc1cc(N2CCN3CCCC[C@H]3C2)c(-c2cnn(C)c2)cc1Nc1ncc(Br)c(Nc2ccc3nccnc3c2P(C)(C)=O)n1 [compound 166] | nM | 0.48 |

Then there is this compound:
Noted for COc1cc(N2CC(C)OC(C)C2)c(-c2cnn(C)c2)cc1Nc1ncc(Br)c(Nc2ccc3nccnc3c2P(C)(C)=O)n1 (single isomer, unassigned) [155b] : its IC50 reads 0.8

----------
Biological target: Ba/F3 De119/T790M/C797S EGFR triple mutant cell line (Homo sapiens, UniProt P00533, T790M/C797S, cells depend on it, form not given)
Experiment: Cell proliferation inhibition experiment (CellTiter-Glo), Ba/F3 De119/T790M/C797S
Type: cell-based
Settings: Ba/F3 Del19/T790M/C797S EGFR triple mutant cells, 72 hours, Cell Titer-Glo; read-out: Ba/F3 (Del19/T790M/C797S) IC50
// map GI50 onto a label; ranges interval 1: < 5 nM; interval 2: ≥ 5 nM and < 20 nM; interval 3: ≥ 20 nM

| compound | groupLabel |
| --- | --- |
| COc1c(Nc2ncc(Br)c(Nc3ccc4nccnc4c3P(C)(C)=O)n2)cc(-c2cnn(C)c2)c(N2CCOCC2)c1C | interval 3 |
| COc1cc(N2CCC(N3CCN(C)CC3)CC2)c(-c2cnn(C)c2)cc1Nc1ncc(Br)c(Nc2ccc3nccnc3c2P(C)(C)=O)n1 | interval 1 |
| COc1cc(N2CCN(C(N)=O)CC2)c(-c2cnn(C)c2)cc1Nc1ncc(Br)c(Nc2ccc3nccnc3c2P(C)(C)=O)n1 | interval 3 |
| COc1cc(N2CCOCC2)c(-c2cnn(C)c2)cc1Nc1ncc(F)c(Nc2ccc3nccnc3c2P(C)(C)=O)n1 | interval 2 |
| COc1nc(N2CCOCC2)c(-c2cn(C)nc2C)cc1Nc1ncc(Br)c(Nc2ccc3nccnc3c2P(C)(C)=O)n1 | interval 3 |

Incoming: Assign a category based on measured GI50 for "COc1cc(N2CCOCC2)c(-c2ccnn2C)cc1Nc1ncc(Br)c(Nc2ccc3nccnc3c2P(C)(C)=O)n1" and give only the class name.
Outgoing: interval 3

Incoming: Assign a category based on measured GI50 for "COc1cc(N2CCC(N3CCN(CCF)CC3)CC2)c(-c2cnn(C)c2)cc1Nc1ncc(Br)c(Nc2ccccc2N(C)S(=O)(=O)C2CC2)n1" and give only the class name.
Outgoing: interval 2

Incoming: Assign a category based on measured GI50 for "Cc1nc(N2CCOCC2)c(-c2cnn(C)c2)cc1Nc1ncc(Br)c(Nc2ccc3nccnc3c2P(C)(C)=O)n1" and give only the class name.
Outgoing: interval 2

Incoming: Assign a category based on measured GI50 for "COc1cc(P(C)(C)=O)c(-c2cnn(C)c2)cc1Nc1ncc(Br)c(Nc2ccc3nccnc3c2P(C)(C)=O)n1" and give only the class name.
Outgoing: interval 3

Incoming: Assign a category based on measured GI50 for COc1cc(N2CCC(N3CCOCC3)C(F)C2)c(-c2cnn(C)c2)cc1Nc1ncc(Br)c(Nc2ccc3nccnc3c2P(C)(C)=O)n1 (centres unmarked) and give only the class name.
Outgoing: interval 1

Incoming: Assign a category based on measured GI50 for "COc1ccc(-n2ccnc2)cc1Nc1ncc(Br)c(Nc2ccc3nccnc3c2P(C)(C)=O)n1" and give only the class name.
Outgoing: interval 3

Incoming: Assign a category based on measured GI50 for "COc1nc(N2CCOCC2)c(-c2cnn(C)c2)cc1Nc1ncc(C)c(Nc2ccc3nccnc3c2P(C)(C)=O)n1" and give only the class name.
Outgoing: interval 2

Incoming: Assign a category based on measured GI50 for "COc1cc(N2CCOCC2)c(-c2cnn(C)c2)cc1Nc1ncc(Br)c(Nc2ccccc2S(=O)(=O)C(C)C)n1" and give only the class name.
Outgoing: interval 3

Incoming: Assign a category based on measured GI50 for COc1cc(N2CCC(N(C)C(C)C(F)(F)F)CC2)c(-c2cnn(C)c2)cc1Nc1ncc(Br)c(Nc2ccc3nccnc3c2P(C)(C)=O)n1 (centres unmarked) and give only the class name.
Outgoing: interval 2

Incoming: Assign a category based on measured GI50 for COc1cc(N2CCC3C(C2)CN3C)c(-c2cnn(C)c2)cc1Nc1ncc(Br)c(Nc2ccc3nccnc3c2P(C)(C)=O)n1 (racemic) and give only the class name.
Outgoing: interval 1

Incoming: Assign a category based on measured GI50 for "COc1c(Nc2ncc(Br)c(Nc3ccc4nccnc4c3P(C)(C)=O)n2)cc(-c2cnn(C)c2)c(N2CCOCC2)c1F" and give only the class name.
Outgoing: interval 2
